Cited source for all entries: PubChem BioAssay (EPA / NIEHS)

# Read-out: Urokinase-type plasminogen activator receptor (uPAR), PLAUR (gene 5329)
# TEST_PROTOCOL: BSK_4H_uPAR: BioMAP Diversity Plus: 4H Assay for Urokinase-type plasminogen activator receptor (uPAR) Biomarker Activity (AID 2283030)
# EXPERIMENTAL_SETUP: primary human endothelial cells (HUVEC); actives raise or lower the signal
Calls of active or inactive are those of the source. How the source made its calls: active means hit-call score of the fitted dose curve at least 0.9, where 1 is the maximum; inactive means score below 0.9.
Output constraint: value belongs to active, inactive

COMPOUND: Cc1c(C)c2c(c(C)c1O)CCC(C)(COc1ccc(CC3SC(=O)NC3=O)cc1)O2 (stereo not given)
DISCRETE_LABEL: active

COMPOUND: CCCC[C@H]1CN(CC2CCOCC2)C(=O)OC12CCN(C1(C)CCN(C(=O)c3c(C)ncnc3C)CC1)CC2
DISCRETE_LABEL: inactive

COMPOUND: O=C1OC(c2ccc(O)cc2)(c2ccc(O)cc2)c2ccccc21
DISCRETE_LABEL: active

COMPOUND: O=C1CCCCC1
DISCRETE_LABEL: inactive

COMPOUND: CCN(CC)CCOc1ccc(C(=C(Cl)c2ccccc2)c2ccccc2)cc1
DISCRETE_LABEL: active

Please look at the following compound next.
[in] Could you please tell me the result logged for `CC(=O)O[C@]1(C(C)=O)CC[C@H]2[C@@H]3C=C(Cl)C4=CC(=O)[C@@H]5C[C@@H]5[C@]4(C)[C@H]3CC[C@@]21C` in this assay?
[out] active

====

# TARGET_DESC: Androgen Receptor/SRC-1 Co-activator, AR (gene 367)
# TEST_PROTOCOL: OT_AR_ARSRC1_0480: Odyssey Thera (OT) 8-hour HEK293T Protein-Complementation Assay for Androgen Receptor/SRC-1 Co-activator (AID 2283354);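 further: hits raise the complementation signal above DMSO so AC50 marks enhancers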
Records with an inconclusive call do not appear. Calls of active or inactive are those of the source. How the source made its calls: active means hit-call score of the fitted dose curve at least 0.9, where 1 is the maximum; inconclusive means response in the unintended direction; inactive means score below 0.9.
The categories you may choose from are active, inactive

COMPOUND: C#CC(O)C(CC)CCCC (centres undefined)
DISCRETE_LABEL: active

[in] Please share the test call associated with `NCCOCCOCCN` .
[out] inactive

[in] Please state the recorded outcome for this compound: `O=C(Oc1ccccc1)c1cccc(C(=O)Oc2ccccc2)c1`
[out] inactive

[in] What did the test return for `CC1=C(C)S(=O)(=O)CCS1(=O)=O` ?
[out] inactive

[in] Hi, sorry to bother you, what did the test record for `CCOCCOCCO` ?
[out] inactive

[in] Entry `O=C1OC(c2ccc(O)cc2)(c2ccc(O)cc2)c2ccccc21` : call = ?
[out] active

[in] What call does the record list for `Cc1cc(SC2=C(O)C[C@@](CCc3ccc(N)cc3)(C(C)C)OC2=O)c(C(C)(C)C)cc1CO` ?
[out] inactive

[in] What outcome does the record of this test show for `CCCCCCCCCC[N+](C)(C)[O-]` ?
[out] inactive

[in] Give the logged outcome of this assay for the following compound: CCC(C)N(C)C(=O)c1cc2ccccc2c(-c2ccccc2Cl)n1 (centres undefined)
[out] inactive

====

# Read-out: Monocyte Chemoattractant Protein-1 (MCP1), CCL2 (gene 6347)
# TEST_PROTOCOL: BSK_4H_MCP1: BioMAP Diversity Plus: 4H Assay for Monocyte Chemoattractant Protein-1 (MCP1) Biomarker Activity (AID 2283018)
# EXPERIMENTAL_SETUP: primary human endothelial cells (HUVEC); actives raise or lower the signal
Activity calls are given as the source filed them. How the source made its calls: active means hit-call score of the fitted dose curve at least 0.9, where 1 is the maximum; inactive means score below 0.9.
Write down the outcome that applies. Available outcomes: TRUE for active, FALSE for inactive

Solved cases (6 shown):
COMPOUND: NC(=Nc1ccccc1)Nc1ccccc1
DISCRETE_LABEL: FALSE
//
COMPOUND: CCCCC(CC)COP(=O)(OCC(CC)CCCC)OCC(CC)CCCC (configuration not stated)
DISCRETE_LABEL: TRUE
//
COMPOUND: CC(=O)CC(c1ccccc1)c1c(O)c2ccccc2oc1=O (configuration not stated)
DISCRETE_LABEL: FALSE
//
COMPOUND: OCC(O)CO
DISCRETE_LABEL: FALSE
//
COMPOUND: O=C(N[C@@H](c1ccccc1)[C@@H]1CCCCN1)c1cccc(C(F)(F)F)c1Cl
DISCRETE_LABEL: FALSE
//
COMPOUND: O=[Si]=O
DISCRETE_LABEL: FALSE

Lab note: next compound to report on.
[in] Hi, sorry to bother you, what did the test record for `O=C(O)c1cccnc1` ?
[out] FALSE
